All values here come from ChEMBL document CHEMBL3243947.

Provide the reported pED40 of each item.
test system: Heart; assay: Antiarrhythmic activity in New Zealand White rabbit isolated atria assessed as reduction of maximum driving frequency after 15 mins; assay type: functional, Oryctolagus cuniculus
Where a name gives a salt, the structure may show the parent alone.
Give a plain numeric answer without units written out.

Input: Give the measured pED40 of Cl.NCCCNCC(O)COc1cccc2ccccc12 (stereo unspecified) .
Output: 4.5

Input: What does the record list as pED40 for CCCCNCC(O)COc1cccc2ccccc12 (stereo unspecified) ?
Output: 5.64

Input: What value of pED40 has been recorded for this entry: COCCCNCC(O)COc1cccc2ccccc12 (stereo unspecified)
Output: 5.45

Input: Given Br.CC(C)NCC(O)COc1c(Br)cc(Br)c2ccccc12 (stereo unspecified) , state its recorded pED40.
Output: 5.1

Input: Bench note: what pED40 did Cl.O=C(O)CCCNCC(O)COc1cccc2ccccc12 (stereo unspecified) show?
Output: 3.41

Input: Data request, read-out pED40, for C[N+](C)(C)CCCNCC(O)COc1cccc2ccccc12.Cl.[Cl-] (stereo unspecified)
Output: 3.08

Input: Need pED40 of CC(C)NCC(O)COc1ccc(O)c2ccccc12 (stereo unspecified) [4-HYDROXYPROPRANOLOL SULFATE] , thanks.
Output: 4.6

Input: Record request: pED40 value, item CC(C)NCC(O)COc1ccc(N)c2ccccc12.Cl (stereo unspecified)
Output: 5.02

Input: # lookup: pED40 of CC(C)NCC(O)COc1cccc2ccccc12 (stereo unspecified)
Output: 5.43

Input: Endpoint output: pED40 of CC(C)NCC(O)COc1ccc(Cl)c2ccccc12 (stereo unspecified) . Value?
Output: 5.2

Input: # input compound: CC(C)NCC(O)COc1ccc(S(N)(=O)=O)c2ccccc12.Cl (stereo unspecified) ; wanted: its pED40
Output: 3.58

----------
test: Octanol-phosphate buffer partition coefficient, log P of the compound; type: physicochemical
Where a name gives a salt, the structure may show the parent alone.
Lab note: anything with logP at or over -0.2 counts as condition met; the rest go in condition not met.

Input: Decide: logP of CC(C)NCC(O)COc1ccc(S(N)(=O)=O)c2ccccc12.Cl (stereo unspecified) >= -0.2?
Output: condition not met

Input: Please check the record CC(C)NCC(O)COc1ccc(O)c2ccccc12 (stereo unspecified) [4-HYDROXYPROPRANOLOL SULFATE] and state if its logP is at or above -0.2.
Output: condition met

Input: State whether the measured logP reaches -0.2, counting equality as reaching it, for Cl.NCCCNCC(O)COc1cccc2ccccc12 (stereo unspecified)
Output: condition met

Input: Would you say Cl.NC(=O)CCCNCC(O)COc1cccc2ccccc12 (stereo unspecified) shows logP at minimum -0.2?
Output: condition met

Input: In plain terms: is recorded logP at least -0.2 for CC(C)NCC(O)COc1ccc(N)c2ccccc12.Cl (stereo unspecified) ?
Output: condition not met

Input: API: above_or_equal(metric=logP, cutoff=-0.2) for item CCCCNCC(O)COc1cccc2ccccc12 (stereo unspecified)
Output: condition met

Input: # bool: logP of C[N+](C)(C)CCCNCC(O)COc1cccc2ccccc12.Cl.[Cl-] (stereo unspecified) >= -0.2
Output: condition not met

Input: Hi team, for COCCCNCC(O)COc1cccc2ccccc12 (stereo unspecified) , is the recorded logP at or above -0.2?
Output: condition met

Input: Determine whether this compound has logP no lower than -0.2: Cl.O=C(O)CCCNCC(O)COc1cccc2ccccc12 (stereo unspecified)
Output: condition met

Input: For this compound, is measured logP -0.2 or higher? Br.CC(C)NCC(O)COc1c(Br)cc(Br)c2ccccc12 (stereo unspecified)
Output: condition met

Input: Could you verify whether the entry CC(C)NCC(O)COc1ccc(Cl)c2ccccc12 (stereo unspecified) shows logP of no less than -0.2?
Output: condition met
